Test system: CD2F1 mice, L1210 leukemia ip, survival T/C
measurement_description: NCI In Vivo Anticancer Drug Screen. Data for tumor model L1210 Leukemia (intraperitoneal) in CD2F1 (CDF1) mice
conditions: endpoint: mean survival time; dose: 400.0 mg/kg/injection; schedule: Q04DX003 (ip); vehicle: saline
Toxic doses and inconclusive results are not listed. The calls were made as follows: active = survival T/C of 150% or more; inactive = T/C below 125% in these data.
Outcome (select one): active, inactive

Identify the outcome logged in this assay for the molecule shown: `CC(C)=CCO` inactive

In this assay, the call recorded for `COc1ccc(N=C(c2ccccc2)c2ccccc2)cc1` was what? inactive

Outcome logged for `CCCCCCCCC(=O)CC` in this assay: inactive

How did this test come out for `CCOC(=O)/C=C(\C)N1CCCCC1` ? inactive

====

Measured T/C, listed per entry for reference.
Test system: CD2F1 mice, L1210 leukemia ip, survival T/C
measurement_description: NCI In Vivo Anticancer Drug Screen. Data for tumor model L1210 Leukemia (intraperitoneal) in CD2F1 (CDF1) mice
conditions: endpoint: mean survival time; dose: 200.0 mg/kg/injection; schedule: Q01DX005 (ip); vehicle: distilled water + Tween-80; higher = longer survival
Toxic doses and inconclusive results are not listed.

| compound | quantity_name | measured_value |
| --- | --- | --- |
| Nc1ncnc2c1ncn2C1OC(COP(N)(N)=O)C(O)C1O (centres undefined) | T/C | 96 % of control |

Provide only the value of recorded T/C for CC(C)(C)OC(=O)Cc1ncnc2c1ncn2C1OC(CO)C(O)C1O (centres undefined) 102 % of control

Give T/C for the following compound: CC(=O)Cc1cc(=O)n(C2OC(COC(=O)c3ccccc3)C(OC(=O)c3ccccc3)C2OC(=O)c2ccccc2)c(=O)[nH]1 (centres undefined) 100 % of control

Tell me T/C reported for `CCOC(=O)C(C)(C(=O)OCC)n1cnc2c1c(=O)n(C)c(=O)n2C` 102 % of control

====

System: CD2F1 mice, L1210 leukemia ip, survival T/C
measurement_description: NCI In Vivo Anticancer Drug Screen. Data for tumor model L1210 Leukemia (intraperitoneal) in CD2F1 (CDF1) mice
conditions: endpoint: mean survival time; dose: 25.0 mg/kg/injection; schedule: Q01DX009 (ip); vehicle: saline with Tween-80; higher = longer survival
Inconclusive results and toxic doses are left out.
quantity_name: T/C

Completed entries (count: 5):
| compound | T/C |
| --- | --- |
| Cc1cc(NCCCCCCCNc2cc(C)nc3cc(N)ccc23)c2ccc(N)cc2n1 | 104 % of control |
| CN=Cc1ccc(OC)cc1 | 116 % of control |
| CCCCN1CCN(CCCC)C1CCC | 98 % of control |
| OC(CC(CC(O)(C(F)(F)F)C(F)(F)F)=NNc1ccccc1)(C(F)(F)F)C(F)(F)F | 92 % of control |
| Cc1cccc(C)c1C1=NCCN1 | 98 % of control |

Name the recorded T/C of the item `O=S(=O)(N=N/C=C1\C=CC=CN1O)c1cccs1` in your answer. 101 % of control

Name the recorded T/C of the compound listed here: c1ccc(COC2CN3CCC2CC3)cc1 (stereo unspecified) 100 % of control

====

Tested on: CD2F1 mice, L1210 leukemia ip, survival T/C
measurement_description: NCI In Vivo Anticancer Drug Screen. Data for tumor model L1210 Leukemia (intraperitoneal) in CD2F1 (CDF1) mice
conditions: endpoint: mean survival time; dose: 12.5 mg/kg/injection; schedule: Q04DX002 (ip); vehicle: saline with Tween-80; higher = longer survival
Inconclusive results and toxic doses are left out.
Reported T/C by item:

Answered cases to consult:
| compound | quantity_name | measured_value |
| --- | --- | --- |
| CC(=O)OC1CCC2(C)C(CCC3(C)C2CCC2C4C5OC(=O)C4(CCC5(C)C)CCC23C)C1(C)C (configuration not stated) | T/C | 100 % of control |
| CC(C)(C)[CH2][Sn]([Cl])([CH2]C(C)(C)C)[CH2]C(C)(C)C | T/C | 103 % of control |

Please report the measured T/C for CC1SC(C(C)(C)C)SC(C)C1C(C)(C)C (configuration not stated) 102 % of control

Please give measured T/C of the following entry: `Cc1sc2cc(N)ccc2[n+]1C` 102 % of control

Report measured T/C; entry is `Cc1ccc(C23CC4CC(CC(C4)C2)C3)cc1` 101 % of control

Identify measured T/C corresponding to CN1C(=O)CC(c2ccc(NC(=O)CI)cc2)C1=O (configuration not stated) 96 % of control

Write down T/C measured for item `Cc1cc(Nc2ccccc2)nc(C)n1` 111 % of control
